- Tested on: NCI-H2342 (Lung Adenocarcinoma)
- method description: combination Emax (second highest fraction inhibited in the dose matrix, 72 h); higher = more inhibition; extreme values may be limits of the assay
readout label: combination Emax
Simply state the number, no unit and no words.

Take a look at these entries with their results.
COc1nnc2ccc(N3CCC(c4ccc(OCCN5CCN(C)C(=O)[C@H]5C)cc4)CC3)nn12 [AZD5153] + C=CCn1c(=O)c2cnc(Nc3ccc(N4CCN(C)CC4)cc3)nc2n1-c1cccc(C(C)(C)O)n1 [AZD1775] (first compound max 1 µM, partner max 1 µM)
0.711
CCN(CCO)CCCOc1ccc2c(Nc3cc(CC(=O)Nc4cccc(F)c4)[nH]n3)ncnc2c1 [AZD2811] + C[C@@H]1COCCN1C2=NC(=NC(=C2)C3(CC3)[S@](=N)(=O)C)C4=C5C=CNC5=NC=C4 [AZD6738] (first compound max 1 µM, 7x7, partner max 10 µM)
0.213

[Q] // query combination Emax value for entry CC1(C)CCC(CN2CCN(c3ccc(C(=O)NS(=O)(=O)c4ccc(NCC5CCOCC5)c([N+](=O)[O-])c4)c(Oc4cnc5[nH]ccc5c4)c3)CC2)=C(c2ccc(Cl)cc2)C1 [Venetoclax] + Cn1cnc2c(F)c(Nc3ccc(Br)cc3Cl)c(C(=O)NOCCO)cc21 [Selumetinib] (first compound max 1 µM, 7x7, partner max 3 µM)
[A] 0.193
